Sourced from ChEMBL document CHEMBL1143101

- Test system: Aorta
- assaySummary: Vasorelaxant activity against U46619-induced contraction in endothelium-intact Sprague-Dawley rat thoracic aorta
- Format: functional, tissue-based
- Set-up: scale not given: the % may be the effect or the level left
readoutType: Activity (%)

- smilesText: "COc1cc(-c2oc3ccccc3c(=O)c2O)ccc1O"
  reportedMeasurement: 101
- smilesText: "COc1cccc(-c2oc3ccccc3c(=O)c2O)c1"
  reportedMeasurement: 101
- smilesText: "O=c1c(O)c(-c2ccc(O)cc2)oc2ccccc12"
  reportedMeasurement: 100
- smilesText: "O=c1c(O)c(-c2ccc(O)c(O)c2)oc2ccccc12"
  reportedMeasurement: 101

====

This section presents compounds with their documented EC50 values.
- Test system: Aorta
- assaySummary: Effect on acetylcholine-induced vasorelaxation in xanthine/xanthine oxidase exposed Sprague-Dawley rat thoracic aorta
- Assay type: functional, tissue-based
- recordedConditions: Rattus norvegicus, Sprague-Dawley, Thoracic aorta

- smilesText: "COc1cc(-c2oc3ccccc3c(=O)c2O)ccc1O"
  EC50 / nM: 89.1
- smilesText: "O=c1c(O)c(-c2ccc(O)c(O)c2)oc2ccccc12"
  EC50 / nM: 55

====

This section presents compounds with their documented EC50 values.
- Test system: Aorta
- assaySummary: Vasorelaxant activity against U46619-induced contraction in endothelium-intact Sprague-Dawley rat thoracic aorta
- Format: functional, tissue-based
- recordedConditions: Rattus norvegicus, Sprague-Dawley, Thoracic aorta

- smilesText: "O=c1c(O)c(-c2ccc(O)cc2)oc2ccccc12"
  EC50: "1660 nM"
- smilesText: "COc1cc(-c2oc3ccccc3c(=O)c2O)ccc1O"
  EC50: "871 nM"
- smilesText: "O=c1c(O)c(-c2ccc(O)c(O)c2)oc2ccccc12"
  EC50: "1350 nM"
- smilesText: "COc1cccc(-c2oc3ccccc3c(=O)c2O)c1"
  EC50: "3020 nM"

====

- System: Aorta
- assaySummary: Vasorelaxant activity against U46619-induced contraction in endothelium-denuded Sprague-Dawley rat thoracic aorta
- Type: functional, tissue-based
- Set-up: scale not given: the % may be the effect or the level left
readoutType: Activity

- smilesText: "O=c1c(O)c(-c2ccc(O)c(O)c2)oc2ccccc12"
  reportedMeasurement: "100%"
- smilesText: "COc1cccc(-c2oc3ccccc3c(=O)c2O)c1"
  reportedMeasurement: "93%"
- smilesText: "O=c1c(O)c(-c2ccc(O)cc2)oc2ccccc12"
  reportedMeasurement: "102%"
- smilesText: "COc1cc(-c2oc3ccccc3c(=O)c2O)ccc1O"
  reportedMeasurement: "100%"
